System: Staphylococcus aureus
TEST_DESCRIPTION: Antimicrobial activity against Staphylococcus aureus MTCC 96 incubated for 24 hrs by well diffusion method
Assay type: functional
MEASUREMENT_SETUP: MTCC 96, 24 h
# MIC values compiled below
Use µM as the unit, but write only the number.

In [3]: df
Out[3]:
                                   compound  experimental_result
0  CCCCCCC(C/C=C\CCCCCCCC(=O)OC)/N=C\c1cccc(C)c1 (stereo not drawn)                  151
1  CCCCCCC(C/C=C\CCCCCCCC(=O)OC)/N=C\c1ccc(F)cc1 (stereo not drawn)                  150
2  CCCCCCC(C/C=C\CCCCCCCC(=O)OC)/N=C\c1ccc(OC)cc1OC (stereo not drawn)                 67.9
3  CCCCCCC(C/C=C\CCCCCCCC(=O)OC)/N=C\c1ccc(OC)cc1 (stereo not drawn)                 18.1

For the record CCCCCCC(C/C=C\CCCCCCCC(=O)OC)/N=C\c1cc(OC)c(O)c(OC)c1 (stereo not drawn) , what value of MIC is listed for Staphylococcus aureus? 16.4

====

# MIC values compiled below
Tested on: Micrococcus luteus
TEST_DESCRIPTION: Antimicrobial activity against Micrococcus luteus MTCC 2470 incubated for 24 hrs by well diffusion method
Type: functional
MEASUREMENT_SETUP: MTCC 2470, 24 h

Example cases with answers are listed next.
>>> df
                                   molecule  reported_property  experimental_result
0  CCCCCCC(C/C=C\CCCCCCCC(=O)OC)/N=C\c1ccc(Cl)cc1Cl (stereo not drawn)                MIC             > 300 µM
1  CCCCCCC(C/C=C\CCCCCCCC(=O)OC)/N=C\c1ccc(Cl)cc1 (stereo not drawn)                MIC             > 300 µM

Would you mind telling me what MIC value was observed for CCCCCCC(C/C=C\CCCCCCCC(=O)OC)/N=C\c1ccc(N(C)C)cc1 (stereo not drawn) ? > 300 µM

====

# log10 of MIC values compiled below
System: Staphylococcus aureus
TEST_DESCRIPTION: Antimicrobial activity against Staphylococcus aureus MTCC 96 incubated for 24 hrs by well diffusion method
Format: functional
MEASUREMENT_SETUP: MTCC 96, 24 h
Remember, log10 of MIC, in µM.

Example cases with answers are listed next.
In [3]: df
Out[3]:
                                   compound  experimental_result
0  O=C(O)c1cn(C2CC2)c2cc(N3CCNCC3)c(F)cc2c1=O [CIPROFLOXACIN]                 0.43
1  CCCCCCC(C/C=C\CCCCCCCC(=O)OC)/N=C\c1ccc(OC)c(OC)c1 (stereo not given)                 1.83
2  CCCCCCC(C/C=C\CCCCCCCC(=O)OC)/N=C\c1ccc(O)cc1 (stereo not given)                 1.27
3  CCCCCCC(C/C=C\CCCCCCCC(=O)OC)/N=C\c1ccc(N(C)C)cc1 (stereo not given)                 1.25
4  CCCCCCC(C/C=C\CCCCCCCC(=O)OC)/N=C\c1ccc(Cl)cc1 (stereo not given)                 0.95
5  CCCCCCC(C/C=C\CCCCCCCC(=O)OC)/N=C\c1c[nH]c2ccccc12 (stereo not given)                 1.25
6  CCCCCCC(C/C=C\CCCCCCCC(=O)OC)/N=C\c1ccc(O)c(OC)c1 (stereo not given)                 1.24

Would you mind telling me what log10 of MIC value was observed for CCCCCCC(C/C=C\CCCCCCCC(=O)OC)/N=C\C=C\c1ccc(N(C)C)cc1 (stereo not given) ? 1.22
